# TESTED_ON: Cytochrome P450 2C19 (Homo sapiens)
# Sequence (P33261 whole entry): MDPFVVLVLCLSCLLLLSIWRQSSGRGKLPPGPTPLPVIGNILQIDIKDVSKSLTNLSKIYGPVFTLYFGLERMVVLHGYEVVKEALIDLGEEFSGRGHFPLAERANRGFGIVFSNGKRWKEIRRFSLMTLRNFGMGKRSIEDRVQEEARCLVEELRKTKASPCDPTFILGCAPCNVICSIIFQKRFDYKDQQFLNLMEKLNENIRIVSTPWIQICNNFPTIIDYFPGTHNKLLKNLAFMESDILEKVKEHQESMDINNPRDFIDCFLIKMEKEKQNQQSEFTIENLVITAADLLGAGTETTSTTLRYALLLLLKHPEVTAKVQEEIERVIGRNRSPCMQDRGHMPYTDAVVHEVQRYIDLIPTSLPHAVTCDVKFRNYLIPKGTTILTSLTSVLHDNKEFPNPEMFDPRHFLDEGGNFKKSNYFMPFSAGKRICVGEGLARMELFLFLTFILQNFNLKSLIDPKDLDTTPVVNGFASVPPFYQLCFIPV
QUANTITY: pIC50
The meaning of pIC50 here: minus log10 of the concentration in molar units.

pIC50 measured on "Cc1cccnc1-c1ccc(-c2n[nH]c3ncc(-c4ccc5c(c4)CC[C@@H](N4C6COCC4C6)CC5)cc23)nc1" = 4.77

---

# TESTED_ON: Cytochrome P450 2C8 (Homo sapiens, UniProt P10632)
# Sequence (P10632 whole entry): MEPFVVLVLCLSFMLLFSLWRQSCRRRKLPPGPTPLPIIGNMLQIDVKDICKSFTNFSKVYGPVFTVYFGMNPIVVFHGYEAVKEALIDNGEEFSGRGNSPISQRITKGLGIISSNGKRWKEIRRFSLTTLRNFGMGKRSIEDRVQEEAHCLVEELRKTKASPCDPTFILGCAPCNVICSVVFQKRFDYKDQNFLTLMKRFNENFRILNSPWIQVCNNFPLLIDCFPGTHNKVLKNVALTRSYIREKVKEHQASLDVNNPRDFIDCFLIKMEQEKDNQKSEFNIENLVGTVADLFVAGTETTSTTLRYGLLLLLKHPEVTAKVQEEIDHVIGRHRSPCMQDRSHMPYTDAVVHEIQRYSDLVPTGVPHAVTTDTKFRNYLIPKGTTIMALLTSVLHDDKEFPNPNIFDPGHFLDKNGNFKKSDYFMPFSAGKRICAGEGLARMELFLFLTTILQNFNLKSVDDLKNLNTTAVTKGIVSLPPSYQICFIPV
QUANTITY: pIC50
The meaning of pIC50 here: minus log10 of the concentration in molar units.

GET /values?item= "Cc1cccnc1-c1ccc(-c2n[nH]c3ncc(-c4ccc5c(c4)CC[C@@H](N4C6COCC4C6)CC5)cc23)nc1" &system= Cytochrome P450 2C8 (Homo sapiens, UniProt P10632) returns pIC50: 4.77

Where do the numbers come from? From ChEMBL document CHEMBL6134930.
